Data origin: the supplement of paper PMC10201428

# Test system: VchCAST RNA-guided transposition machinery (E. coli BL21(DE3) host, lacZ target)
# METHOD_DESCRIPTION: relative integration efficiency (T-RL orientation) vs wild-type transposon end (log2 (normalized fold change)); transposon end mutated: right end (5 bp flank + 75 bp right end); higher = more efficient transposition
Tick Satisfied if relative integration efficiency (log2) is -0.1 or greater. Tick Not satisfied if relative integration efficiency (log2) is less than -0.1.

Previously resolved entries follow.
SEQUENCE_CHAIN: ACATTTGCTGATAGAACCATTTAATGATAATAACACCCATAAAATGATAATTATCACACCCAATTTAACTATAACGCTCTGATCATAGTCAGACCAACATTGCTACGACCCGTATTCGCACCGACAC
LABEL_CLASS: Not satisfied
--
SEQUENCE_CHAIN: ACATTTGTTGATACAACCATAAAATCATCATTCACCCATAAATTGATAATTATCACACCCACATTTAACTATAACGCTCTGATCATAGTCAGACCAACATTGCTACGACCCGTATTCGCACCGACAC
LABEL_CLASS: Not satisfied
--
SEQUENCE_CHAIN: ACATTTGTTGATACAACCATAAAATGATCACCCATAAATTGATAATTATCACACCCATAAATTGATATTGCCTCTGATCATAGTCAGACCAACATTGCTACGACCCGTATTCGCACCGACACTGACT
LABEL_CLASS: Not satisfied
--
SEQUENCE_CHAIN: ACATTTGTTGATACAACCATAAAGTGATATTTACACCCATAAATTGATATTGCTCACAACCATAAGTTGATATTTTCTCTGATCATAGTCAGACCAACATTGCTACGACCCGTATTCGCACCGACAC
LABEL_CLASS: Not satisfied

Continue with the sequence presented below.
(Q) Determine whether this sequence has relative integration efficiency (log2) no lower than -0.1: `ACATTTGTTGATACAACCATAAAATGATAATTACACCCATAAATTGATAATAATGACACCGAATTTAACTATAACGCTCTGATCATAGTCAGACCAACATTGCTACGACCCGTATTCGCACCGACAC`
(A) Satisfied

* * *

# Tested on: VchCAST RNA-guided transposition machinery (E. coli BL21(DE3) host, lacZ target)
# METHOD_DESCRIPTION: relative integration efficiency (T-RL orientation) vs wild-type transposon end (log2 (normalized fold change)); transposon end mutated: left end; higher = more efficient transposition
VALUE_TYPE: relative integration efficiency (log2)
No unit in the answer, please; the number alone is enough.

(Q) Tell me relative integration efficiency (log2) reported for `AATGTTGTTGATGCAACCATAAAGTGATATTTAATAATTATTTATAATCAGCAACTTAACCACAAAACAACCATATAGGTCGCGAGACACCCCACCAACGCCTGGTCGCGGGGGTGTCCGATCTGATTTCAGCAAAACTACTGCAGTAAGAA`
(A) -5.2

(Q) Tell me relative integration efficiency (log2) reported for `AATGTTGTTGATGCAACCATAAAGTGATATTTAATAATTATTTATAATCAGCAACTTAACCACAAAATGTGAATCGAGTATTCAACCATATATTGATATCTCACAAAACAACCATAAGTTGATATTTTTCAGCAAAACTACTGCAGTAAGAA`
(A) -4

* * *

# Tested on: VchCAST RNA-guided transposition machinery (E. coli BL21(DE3) host, lacZ target)
# METHOD_DESCRIPTION: relative integration efficiency (T-RL orientation) vs wild-type transposon end (log2 (normalized fold change)); transposon end mutated: left end; higher = more efficient transposition
VALUE_TYPE: relative integration efficiency (log2)
No unit in the answer, please; the number alone is enough.

SEQUENCE_CHAIN: AATGTTGTTGATGCAACCATAAAGTGATATTTAATAATTATTTATAATCAGCAACTTAACCACAAAACAACCATATATTGATATCTCACCAACCATAAGTTGATATTTTTGTGAATCGAGTATTTCAGCAAAACTACTGCAGTAAGAAAGTT
MEASURED_ON: VchCAST RNA-guided transposition machinery (E. coli BL21(DE3) host, lacZ target)
relative integration efficiency (log2): -3.37
//
SEQUENCE_CHAIN: AATGTTGTTGATGTCAACCATAAAGTGATATTTAATAATTATTTATAATCAGCAACTTAACCACAAAACAACCATATATTGATATCTCACAAAACAACCATAAGTTGATATTTTTGTGAATCGAGTATTTCAGCAAAACTACTGCAGTAAGA
MEASURED_ON: VchCAST RNA-guided transposition machinery (E. coli BL21(DE3) host, lacZ target)
relative integration efficiency (log2): -0.694
//
SEQUENCE_CHAIN: AATGTTGTTGATGCAACCATAAAATGATAATTAATAATTATTTATAATCAGCAACTTAACCACAAAACAACCATAAAATGATAATTAACAAAATAATTATCATTTTATGGTTGTGTGAATCGAGTATTTCAGCAAAACTACTGCAGTAAGAA
MEASURED_ON: VchCAST RNA-guided transposition machinery (E. coli BL21(DE3) host, lacZ target)
relative integration efficiency (log2): -3.63

// switching to the query sequence
(Q) Tell me relative integration efficiency (log2) reported for `AATGTTGTTGATGCAACCATAAAGTGATATTTAATAATTATTTATAATCAGCAACTTCAACCATATATTGATATCTCAACCACAAAAACAAAACAACCATAAGTTGATATTTTTGTGAATCGAGTATTTCAGCAAAACTACTGCAGTAAGAA`
(A) -2.25

* * *

Quick list: relative integration efficiency (log2) per entry.
# System: VchCAST RNA-guided transposition machinery (E. coli BL21(DE3) host, lacZ target)
# METHOD_DESCRIPTION: relative integration efficiency (T-LR orientation) vs wild-type transposon end (log2 (normalized fold change)); transposon end mutated: right end (5 bp flank + 75 bp right end); higher = more efficient transposition

SEQUENCE_CHAIN: ACATTTGTTCATACAACCCTAAAATGATAATTACACCCATAAATGGATAATTATCACCCCCAATTTAACTATAACGCTCTGATCATAGTCAGACCAACATTGCTACGACCCGTATTCGCACCGACAC
relative integration efficiency (log2): -2.74
--
SEQUENCE_CHAIN: ACATTTGTTGATACAACCATAAAATGATAATGCACCCCATAAATTGATAATTATCACACCCATAAATTGATATTGCCTCTGATCATAGTCAGACCAACATTGCTACGACCCGTATTCGCACCGACAC
relative integration efficiency (log2): -0.689
--
SEQUENCE_CHAIN: ACATTTGTTGATACAACACTAAAATGATAATTACACCCATAAATTGATAATTATCACACCCATAAATTGATATTGCCTCTGATCATAGTCAGACCAACATTGCTACGACCCGTATTCGCACCGACAC
relative integration efficiency (log2): -2.04
--
SEQUENCE_CHAIN: ACATTTGTTGATACAACCATAAAATGATAATTACACCCATAAATTGATAATTATCACACCCATAAATTGATATTGCCTCCAACCATAAAATGATAATTATGATCATAGTCAGACCAAGCACCGACAC
relative integration efficiency (log2): -0.77

// switching to the query sequence
(Q) Tell me relative integration efficiency (log2) reported for `ACATTTGTTGATACAACCATTAAATGATAATTCCACCCATATATTGATAATTATCACACCCAATTTAACTATAACGCTCTGATCATAGTCAGACCAACATTGCTACGACCCGTATTCGCACCGACAC`
(A) 2.16

* * *

Quick list: relative integration efficiency (log2) per entry.
# System: VchCAST RNA-guided transposition machinery (E. coli BL21(DE3) host, lacZ target)
# METHOD_DESCRIPTION: relative integration efficiency (T-RL orientation) vs wild-type transposon end (log2 (normalized fold change)); transposon end mutated: right end (5 bp flank + 75 bp right end); higher = more efficient transposition
No unit in the answer, please; the number alone is enough.

SEQUENCE_CHAIN: ACATTTGTTGATACAACCATAAAATGATCCGGCCACCCATAAATTGATCCGGCTCACACCCATAAATTGATCGGTACTCTGATCATAGTCAGACCAACATTGCTACGACCCGTATTCGCACCGACAC
DATA_VALUE: -2.73

(Q) Jot down relative integration efficiency (log2) (VchCAST RNA-guided transposition machinery (E. coli BL21(DE3) host, lacZ target)) of `ACATTTGTTGATACAACCATAAAATGATAATCACCCATAAATTGATAATTATCACACCCATAAATTGATATTGCCTCTGATCATAGTCAGACCAACATTGCTACGACCCGTATTCGCACCGACACTG` .
(A) -4.33

(Q) Jot down relative integration efficiency (log2) (VchCAST RNA-guided transposition machinery (E. coli BL21(DE3) host, lacZ target)) of `ACATTTGTTGATACAACCAATAAATGATTATTACACCCATAAATTGATAATAATGACACCGAATTTAACTATAACGCTCTGATCATAGTCAGACCAACATTGCTACGACCCGTATTCGCACCGACAC` .
(A) 0.0749

(Q) Jot down relative integration efficiency (log2) (VchCAST RNA-guided transposition machinery (E. coli BL21(DE3) host, lacZ target)) of `ACATTTGTTGATACAACCATAAAAGGATCATTACACCCATCAATTGATAATTATCCCACCCCATTTAACTATAACGCTCTGATCATAGTCAGACCAACATTGCTACGACCCGTATTCGCACCGACAC` .
(A) -3.29

(Q) Jot down relative integration efficiency (log2) (VchCAST RNA-guided transposition machinery (E. coli BL21(DE3) host, lacZ target)) of `TATAATGTTGATACAACCATAAAATGATAATTACACCCATAAATTGATAATTATCACACCCATAAATTGATATTGCCTCTGATCATAGTCAGACCAACATTGCTACGACCCGTATTCGCACCGACAC` .
(A) -0.277

(Q) Jot down relative integration efficiency (log2) (VchCAST RNA-guided transposition machinery (E. coli BL21(DE3) host, lacZ target)) of `ACATTTGTTGATACAACCAAAAAATGATAATTACACCCATAAATTGATAATTGTGACACCGAATTTAACTATAACGCTCTGATCATAGTCAGACCAACATTGCTACGACCCGTATTCGCACCGACAC` .
(A) -1.12
